# maps each entry to its MFI at 33.3 nM
target: PD-L1 (human); experiment: flow cytometry, CHO cells stably expressing PD-L1
Sequence (chain, as listed by the source): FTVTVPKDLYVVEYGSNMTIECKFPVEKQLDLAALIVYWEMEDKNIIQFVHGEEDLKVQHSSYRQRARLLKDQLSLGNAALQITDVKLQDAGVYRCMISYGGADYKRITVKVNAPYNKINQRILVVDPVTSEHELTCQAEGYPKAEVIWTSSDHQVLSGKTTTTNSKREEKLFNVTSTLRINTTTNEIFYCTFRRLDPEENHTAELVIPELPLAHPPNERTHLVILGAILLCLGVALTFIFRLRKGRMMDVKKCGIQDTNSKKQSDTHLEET
value_kind: MFI at 33.3 nM (MFI)

binder="CD80 variant Q33L/E35D/M47I IgV-Fc (Fc fusion) VIHVTKEVKEVATLSCGHNVSVEELAQTRIYWLKDKKMVLTMMSGDINIWPEYKNRTIFDITNNLSIVILALRPSDEGTYECVVLKYEKDAFKREHLAEVT" quantitative_readout=37400
binder="CD80 variant Q33L/E35D/M47L/V68M/L85Q/E88D IgV-Fc (Fc fusion) VIHVTKEVKEVATLSCGHNVSVEELAQTRIYWLKDKKMVLTMMSGDLNIWPEYKNRTIFDITNNLSIMILALRPSDEGTYECVVQKYDKDAFKREHLAEVT" quantitative_readout=126000
binder="CD80 variant Q33L/E35D/T41S/M43I IgV-Fc (Fc fusion) VIHVTKEVKEVATLSCGHNVSVEELAQTRIYWLKDKKMVLSMISGDMNIWPEYKNRTIFDITNNLSIVILALRPSDEGTYECVVLKYEKDAFKREHLAEVT" quantitative_readout=44900
binder="CD80 variant Q33L/E35D/M47V/L85Q IgV-Fc (Fc fusion) VIHVTKEVKEVATLSCGHNVSVEELAQTRIYWLKDKKMVLTMMSGDVNIWPEYKNRTIFDITNNLSIVILALRPSDEGTYECVVQKYEKDAFKREHLAEVT" quantitative_readout=47400
binder="CD80 variant Q33K/E35D/D46V/L85Q IgV-Fc (Fc fusion) VIHVTKEVKEVATLSCGHNVSVEELAQTRIYWKKDKKMVLTMMSGVMNIWPEYKNRTIFDITNNLSIVILALRPSDEGTYECVVQKYEKDAFKREHLAEVT" quantitative_readout=26700
binder="CD80 variant A26E/Q33L/E35D/M47L IgV-Fc (Fc fusion) VIHVTKEVKEVATLSCGHNVSVEELEQTRIYWLKDKKMVLTMMSGDLNIWPEYKNRTIFDITNNLSIVILALRPSDEGTYECVVLKYEKDAFKREHLAEVT" quantitative_readout=60900
binder="CD80 variant A26E/Q33R/E35D/M47L/L85Q IgV-Fc (Fc fusion) VIHVTKEVKEVATLSCGHNVSVEELEQTRIYWRKDKKMVLTMMSGDLNIWPEYKNRTIFDITNNLSIVILALRPSDEGTYECVVQKYEKDAFKREHLAEVT" quantitative_readout=81500
binder="CD80 variant H18Y/A26E/Q33L/E35D/M47L/L85Q IgV-Fc (Fc fusion) VIHVTKEVKEVATLSCGYNVSVEELEQTRIYWLKDKKMVLTMMSGDLNIWPEYKNRTIFDITNNLSIVILALRPSDEGTYECVVQKYEKDAFKREHLAEVT" quantitative_readout=76600
binder="CD80 variant Q33L/E35D/M47I/L85Q IgV-Fc (Fc fusion) VIHVTKEVKEVATLSCGHNVSVEELAQTRIYWLKDKKMVLTMMSGDINIWPEYKNRTIFDITNNLSIVILALRPSDEGTYECVVQKYEKDAFKREHLAEVT" quantitative_readout=63900
binder="CD80 variant H18Y/Y31H/E35D/M47V/A71G/L85Q IgV-Fc (Fc fusion) VIHVTKEVKEVATLSCGYNVSVEELAQTRIHWQKDKKMVLTMMSGDVNIWPEYKNRTIFDITNNLSIVILGLRPSDEGTYECVVQKYEKDAFKREHLAEVT" quantitative_readout=76400
binder="CD80 variant H18Y/E35D/M47L IgV-Fc (Fc fusion) VIHVTKEVKEVATLSCGYNVSVEELAQTRIYWQKDKKMVLTMMSGDLNIWPEYKNRTIFDITNNLSIVILALRPSDEGTYECVVLKYEKDAFKREHLAEVT" quantitative_readout=44200
binder="CD80 variant A26E/Q33R/E35D/M47L/L85Q/K86E IgV-Fc (Fc fusion) VIHVTKEVKEVATLSCGHNVSVEELEQTRIYWRKDKKMVLTMMSGDLNIWPEYKNRTIFDITNNLSIVILALRPSDEGTYECVVQEYEKDAFKREHLAEVT" quantitative_readout=76000
binder="CD80 variant E35D/M47I/E77A/L85Q/R94W IgV-Fc (Fc fusion) VIHVTKEVKEVATLSCGHNVSVEELAQTRIYWQKDKKMVLTMMSGDINIWPEYKNRTIFDITNNLSIVILALRPSDAGTYECVVQKYEKDAFKWEHLAEVT" quantitative_readout=64500
binder="CD80 variant Q27H/Q33L/E35D/M47V/N55D/L85Q/K89N IgV-Fc (Fc fusion) VIHVTKEVKEVATLSCGHNVSVEELAHTRIYWLKDKKMVLTMMSGDVNIWPEYKDRTIFDITNNLSIVILALRPSDEGTYECVVQKYENDAFKREHLAEVT" quantitative_readout=14800

The measurements presented in this section are drawn from patent US20250163127A1.
